# study system: Sigma non-opioid intracellular receptor 1 (Cavia porcellus)
# Sequence (Q60492 whole entry): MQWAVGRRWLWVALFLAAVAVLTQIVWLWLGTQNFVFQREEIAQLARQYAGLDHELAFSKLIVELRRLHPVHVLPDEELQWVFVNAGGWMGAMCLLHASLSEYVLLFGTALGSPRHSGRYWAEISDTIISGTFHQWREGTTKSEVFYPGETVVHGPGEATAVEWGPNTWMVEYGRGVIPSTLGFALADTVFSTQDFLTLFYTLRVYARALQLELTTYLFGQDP
# experimental protocol: Displacement of (+)-[3H]pentazocine from sigma 1 receptor in guinea pig liver homogenates after 1 hr by liquid scintillation counting
# Assay type: tissue-based
# condition info: read-out: Ki
pKi: −log10 of the molar value.
Returns the class for an entry based on its pKi. Class ranges: LOW: < 5; MEDIUM: ≥ 5 and < 7; HIGH: ≥ 7

mol=CCCNCCc1ccc([N+](=O)[O-])cc1 study_system="Sigma non-opioid intracellular receptor 1 (Cavia porcellus)" classification=MEDIUM
mol=CCCCN(CCCC)CCCc1ccc([N+](=O)[O-])cc1 study_system="Sigma non-opioid intracellular receptor 1 (Cavia porcellus)" classification=HIGH
mol=CCCN(CCCc1ccc(F)cc1)CCc1ccc(N)cc1 study_system="Sigma non-opioid intracellular receptor 1 (Cavia porcellus)" classification=MEDIUM
mol=CCCCN(CCCC)CCCc1ccc(F)cc1 study_system="Sigma non-opioid intracellular receptor 1 (Cavia porcellus)" classification=HIGH
mol=CCCCCCCCN(CCCCCCCC)CCCc1ccc(F)cc1 study_system="Sigma non-opioid intracellular receptor 1 (Cavia porcellus)" classification=MEDIUM
mol=CCCCN(CCCC)C(=O)CCc1ccc(F)cc1 study_system="Sigma non-opioid intracellular receptor 1 (Cavia porcellus)" classification=LOW
mol=CCCCCCCCN(CCCCCCCC)C(=O)CCc1ccc(F)cc1 study_system="Sigma non-opioid intracellular receptor 1 (Cavia porcellus)" classification=LOW
mol=CCCN(CCCc1ccc([N+](=O)[O-])cc1)CCc1ccc(N)cc1 study_system="Sigma non-opioid intracellular receptor 1 (Cavia porcellus)" classification=HIGH
mol=CCCN(CCCc1ccc(F)cc1)Cc1ccc(N=[N+]=[N-])c(I)c1 study_system="Sigma non-opioid intracellular receptor 1 (Cavia porcellus)" classification=LOW

----------
# experimental protocol: Selectivity ratio of Ki for sigma 2 receptor in rat liver membranes to Ki for sigma 1 receptor in guinea pig liver homogenates
# Format: cell membranes
# condition info: Membrane
Response field label: string, one of True (Ratio Ki strictly below 10) or False.

mol=CCCCCCCCN(CCCCCCCC)CCCc1ccc(F)cc1 classification=True
mol=CCCN(CCCc1ccc([N+](=O)[O-])cc1)CCc1ccc(N)cc1 classification=False
mol=CCCNCCCc1ccc(F)cc1 classification=True
mol=CCCN(CCCc1ccc(F)cc1)Cc1ccc(N=[N+]=[N-])c(I)c1 classification=False
mol=CCCN(CCCc1ccc(F)cc1)Cc1ccc(N)cc1 classification=False
mol=CCCN(CCCc1ccc(F)cc1)CCc1ccc(N=[N+]=[N-])c(I)c1 classification=True
mol=CCCN(CCCc1ccc(F)cc1)CCc1ccc(N)cc1 classification=True
mol=CCCCN(CCCC)C(=O)CCc1ccc(F)cc1 classification=True
mol=CCCNCCc1ccc([N+](=O)[O-])cc1 classification=False
mol=CCCN(CCCc1ccc(F)cc1)Cc1ccc(N)c(I)c1 classification=True
mol=CCCCN(CCCC)CCCc1ccc([N+](=O)[O-])cc1 classification=False
mol=CCCCN(CCCC)CCCc1ccc(F)cc1 classification=False

----------
# experimental protocol: Displacement of [3H]-ditolyl guanidine from sigma 2 receptor in rat liver membranes after 1 hr by liquid scintillation counting
# Assay type: cell membranes, Membrane
# condition info: read-out: Ki
pKi: −log10 of the molar value.
Threshold rule: pKi greater than or equal to 4 is YES; below that, NO.

mol=CCCN(CCCc1ccc([N+](=O)[O-])cc1)CCc1ccc(N)cc1 classification=YES
mol=CCCNCCCc1ccc(F)cc1 classification=YES
mol=CCCN(CCCc1ccc(F)cc1)Cc1ccc(N)cc1 classification=YES
mol=CCCCCCCCN(CCCCCCCC)CCCc1ccc(F)cc1 classification=YES
mol=CCCN(CCCc1ccc(F)cc1)CCc1ccc(N=[N+]=[N-])c(I)c1 classification=YES
mol=CCCN(CCCc1ccc(F)cc1)CCc1ccc(N)cc1 classification=YES
mol=CCCCN(CCCC)CCCc1ccc([N+](=O)[O-])cc1 classification=YES
mol=CCCCN(CCCC)CCCc1ccc(F)cc1 classification=YES
mol=CCCNCCc1ccc([N+](=O)[O-])cc1 classification=YES
mol=CCCN(CCCc1ccc(F)cc1)Cc1ccc(N)c(I)c1 classification=NO
mol=CCCN(Cc1cccc([N+](=O)[O-])c1)C(=O)CCc1ccc(F)cc1 classification=NO

----------
# System: A549
# experimental protocol: Cytotoxicity against human A549 cells
# Type: functional, cell-based
property label: IC50

mol=CCCN(CCCc1ccc(F)cc1)CCc1ccc(N=[N+]=[N-])c(I)c1 property_label=IC50 observed_measurement="> 100 µM"
mol=CCCCN(CCCC)CCCc1ccc(F)cc1 property_label=IC50 observed_measurement="> 100 µM"
mol=CCCCN(CCCC)CCCc1ccc([N+](=O)[O-])cc1 property_label=IC50 observed_measurement="> 100 µM"
mol=CCCN(CCCc1ccc(F)cc1)CCc1ccc(N)cc1 property_label=IC50 observed_measurement="> 100 µM"
mol=CCCN(CCCc1ccc([N+](=O)[O-])cc1)CCc1ccc(N)cc1 property_label=IC50 observed_measurement="> 100 µM"
mol=CCCN(CCCc1ccc(F)cc1)Cc1ccc(N)cc1 property_label=IC50 observed_measurement="> 100 µM"

----------
Reported IC50 is given for each of the following molecules.
# Test system: SK-OV-3
# experimental protocol: Cytotoxicity against human SKOV3 cells
# Format: functional, cell-based
property label: IC50

mol=CCCCN(CCCC)CCCc1ccc(F)cc1 property_label=IC50 observed_measurement="56.2 µM"
mol=CCCN(CCCc1ccc(F)cc1)CCc1ccc(N=[N+]=[N-])c(I)c1 property_label=IC50 observed_measurement="> 100 µM"
mol=CCCN(CCCc1ccc([N+](=O)[O-])cc1)CCc1ccc(N)cc1 property_label=IC50 observed_measurement="> 100 µM"
mol=CCCN(CCCc1ccc(F)cc1)CCc1ccc(N)cc1 property_label=IC50 observed_measurement="20.2 µM"
mol=CCCCN(CCCC)CCCc1ccc([N+](=O)[O-])cc1 property_label=IC50 observed_measurement="27.9 µM"
mol=CCCN(CCCc1ccc(F)cc1)Cc1ccc(N)cc1 property_label=IC50 observed_measurement="> 100 µM"

----------
# experimental protocol: Cytotoxicity against human H1299 cells
# Type: functional, cell-based
# condition info: NCI-H1299
property label: IC50

mol=CCCN(CCCc1ccc(F)cc1)Cc1ccc(N)cc1 observed_measurement="> 100 µM"
mol=CCCCN(CCCC)CCCc1ccc([N+](=O)[O-])cc1 observed_measurement="> 100 µM"
mol=CCCN(CCCc1ccc(F)cc1)CCc1ccc(N)cc1 observed_measurement="> 100 µM"
mol=CCCN(CCCc1ccc([N+](=O)[O-])cc1)CCc1ccc(N)cc1 observed_measurement="> 100 µM"
mol=CCCN(CCCc1ccc(F)cc1)CCc1ccc(N=[N+]=[N-])c(I)c1 observed_measurement="90.8 µM"
mol=CCCCN(CCCC)CCCc1ccc(F)cc1 observed_measurement="> 100 µM"

----------
# study system: Sigma non-opioid intracellular receptor 1 (Cavia porcellus)
# experimental protocol: Displacement of (+)-[3H]pentazocine from sigma 1 receptor in guinea pig liver homogenates after 1 hr by liquid scintillation counting
# Assay type: tissue-based
# condition info: read-out: Ki
Reported Ki is given for each of the following molecules.
property label: Ki

mol=CCCN(CCCc1ccc(F)cc1)Cc1ccc(N)cc1 property_label=Ki observed_measurement="164 nM"
mol=CCCN(CCCc1ccc(F)cc1)CCc1ccc(N=[N+]=[N-])c(I)c1 property_label=Ki observed_measurement="7240 nM"
mol=CCCNCCCc1ccc(F)cc1 property_label=Ki observed_measurement="91 nM"
